The values you see were collected from ChEMBL document CHEMBL1152627.

Recorded IC50, one value per entry.
System: Trypanosoma cruzi
Experiment: Antitrypanosomal activity against Trypanosoma cruzi
Format: functional, organism-based
Conditions: Trypanosoma cruzi

A selection of reference data follows.
# Smiles Record, IC50
records = [
    ("Cn1ccc2c3ccccc3nc-2c1", "> 160 µM"),
    ("Cn1ccc2nc3ccccc3c-2c1", "> 160 µM"),
    ("C[n+]1ccc2c(c1)[nH]c1ccccc12", "> 95 µM"),
]

Next molecule, please.
Task item: State the recorded IC50 for this entry: Cn1cccc2nc3ccccc3c1-2
Reply: > 160 µM

###

Test: Toxicity against rat L6 cells
Format: cell-based
Settings: rat, L6 cells
Recorded IC50, one value per entry.

# Compound, Value Measured
measured = [
    ("Cn1ccc2c3ccccc3nc-2c1", "> 490 µM"),
    ("O=C(Cn1ccnc1[N+](=O)[O-])NCc1ccccc1 [BENZNIDAZOLE]", "> 90 µM"),
]

Next compound, please.
Task item: State the recorded IC50 for this entry: C[n+]1ccc2c(c1)[nH]c1ccccc12
Reply: > 290 µM
